Measured values drawn from patent US11304962B2 for this set.

assay.explanation: Single-dose crossover pharmacokinetic study of 17-HPC, SQ (upper anterior thigh) vs IM (gluteus maximus) injection
Assay type: in vivo, human
condition.notes: female, human; IM injection 250 mg (1 mL) gluteus maximus, single dose, healthy postmenopausal women, plasma; read-out: Cmax, LS Geometric Mean
observable: Cmax (ng/mL)
State the answer as a number, implicitly in ng/mL.

Value of Cmax reported for the molecule CCCCCC(=O)O[C@]1(C(C)=O)CC[C@H]2[C@@H]3CCC4=CC(=O)CC[C@]4(C)[C@H]3CC[C@@]21C [17-HPC, 17-alpha-hydroxyprogesterone caproate] is 6.14

====

assay.explanation: Solubility of HPC in benzyl benzoate/castor oil mixtures
Format: physicochemical
condition.notes: benzyl benzoate/castor oil mixture, 15 °C, oil or lipid, thermodynamic from solid, 15° C., 75.59 wt % BB relative to castor oil; read-out: mg HPC/mL solution (solubility)
observable: solubility (mg/mL)
Give the quantity in mg/mL, number only.

CCCCCC(=O)O[C@]1(C(C)=O)CC[C@H]2[C@@H]3CCC4=CC(=O)CC[C@]4(C)[C@H]3CC[C@@]21C [17-HPC, 17-alpha-hydroxyprogesterone caproate] has a reported solubility of 289

====

assay.explanation: Single-dose crossover pharmacokinetic study of 17-HPC, SQ (upper anterior thigh) vs IM (gluteus maximus) injection
Format: in vivo, human
condition.notes: female, human, subcutaneous; SQ injection 250 mg (1 mL) upper anterior thigh, single dose, healthy postmenopausal women, plasma; read-out: Cmax, LS Geometric Mean
observable: Cmax (ng/mL)
Give the number; ng/mL is assumed, so skip it.

Cmax measured on CCCCCC(=O)O[C@]1(C(C)=O)CC[C@H]2[C@@H]3CCC4=CC(=O)CC[C@]4(C)[C@H]3CC[C@@]21C [17-HPC, 17-alpha-hydroxyprogesterone caproate] = 4.2

====

assay.explanation: Solubility of HPC in benzyl benzoate/castor oil mixtures
Assay type: physicochemical
condition.notes: benzyl benzoate/castor oil mixture, oil or lipid; 25° C., 63.33 wt % BB relative to castor oil; read-out: mg HPC/mL solution (solubility)
observable: solubility (mg/mL)
The answer is to be given in mg/mL; state only the numeric part.

Per the record, CCCCCC(=O)O[C@]1(C(C)=O)CC[C@H]2[C@@H]3CCC4=CC(=O)CC[C@]4(C)[C@H]3CC[C@@]21C [17-HPC, 17-alpha-hydroxyprogesterone caproate] has solubility of 303

====

assay.explanation: Solubility of HPC in benzyl benzoate/castor oil mixtures
Type: physicochemical
condition.notes: benzyl benzoate/castor oil mixture, 15 °C, oil or lipid, thermodynamic from solid, 15° C., 87.91 wt % BB relative to castor oil; read-out: mg HPC/mL solution (solubility)
observable: solubility (mg/mL)
The figure you give is taken to be in mg/mL; do not add the unit.

Just so you know, measured solubility for CCCCCC(=O)O[C@]1(C(C)=O)CC[C@H]2[C@@H]3CCC4=CC(=O)CC[C@]4(C)[C@H]3CC[C@@]21C [17-HPC, 17-alpha-hydroxyprogesterone caproate] came out at 320
